Molecular target: T1, recombinant human CTLA4 protein with human IgG1 Fc tag at the C-terminus (Acro biosystems, Cat#CT4-H5255) (human, UniProt P16410 37-162)
T1 construct: bought protein; also called human CTLA4-Fc; CTLA4-Fc; not shown: human IgG1 Fc tag at the C-terminus
T1 sequence (looked up): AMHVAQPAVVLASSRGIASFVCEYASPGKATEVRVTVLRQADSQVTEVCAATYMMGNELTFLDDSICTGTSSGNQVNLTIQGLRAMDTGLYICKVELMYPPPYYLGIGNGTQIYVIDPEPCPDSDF
Assay: cell based blocking FACS: antibody pre-mixed with human CTLA4-Fc, added to Daudi cells; blocked ligands: cell surface CD80/CD86
pIC50: −log10 of the molar value.
Reported pIC50 is given for each of the following binders.
quantity-measured: pIC50

* mouse anti-CTLA4 monoclonal antibody D1B6 (antibody, V domains shown, mouse mAb purified from hybridoma supernatant) VH: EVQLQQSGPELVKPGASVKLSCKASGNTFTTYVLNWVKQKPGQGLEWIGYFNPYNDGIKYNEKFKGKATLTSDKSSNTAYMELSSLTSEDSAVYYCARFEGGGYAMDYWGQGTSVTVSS VL: DIVLTQSPASLAVSLGQRATISCRASQSVGTSRNTYIHWYQQKLGQPPKLLIKYASDLESGVPARFSGSGSGTDFTLNIHPVEEEDTATYYCQHSWEIPYTFGGGTKLEIK | 8.09
* chimeric C1G4 anti-CTLA4 antibody (antibody, human IgG4 S228P, kappa, V domains shown, mouse variable domains on human IgG4/kappa, made in 293F cells) VH: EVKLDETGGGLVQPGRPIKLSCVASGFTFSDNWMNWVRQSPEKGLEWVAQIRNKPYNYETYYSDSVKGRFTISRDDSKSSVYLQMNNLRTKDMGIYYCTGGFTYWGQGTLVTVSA VL: DIQMTQSPPSLSASVGETVTITCGASENIYGGLNWYQRKQGKSPQLLIYGATNLADGMSSRFSGSGSGRQYSLKISRLHPDDVATYYCQNVLNTPYTFGGGTKLEIKR | 7.99
* chimeric C1D1 anti-CTLA4 antibody (antibody, human IgG4 S228P, kappa, V domains shown, mouse variable domains on human IgG4/kappa, made in 293F cells) VH: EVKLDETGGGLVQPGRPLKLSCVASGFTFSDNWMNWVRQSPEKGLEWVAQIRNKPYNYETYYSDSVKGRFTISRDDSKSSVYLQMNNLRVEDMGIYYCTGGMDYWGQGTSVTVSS VL: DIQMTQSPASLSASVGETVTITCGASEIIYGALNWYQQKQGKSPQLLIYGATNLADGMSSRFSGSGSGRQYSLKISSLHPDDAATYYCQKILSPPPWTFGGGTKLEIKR | 8.07
* mouse anti-CTLA4 monoclonal antibody C1G4 (antibody, V domains shown, mouse mAb purified from hybridoma supernatant) VH: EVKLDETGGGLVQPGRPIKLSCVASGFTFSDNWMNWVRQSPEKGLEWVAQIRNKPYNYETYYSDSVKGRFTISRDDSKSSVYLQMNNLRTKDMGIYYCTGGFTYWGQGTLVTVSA VL: DIQMTQSPPSLSASVGETVTITCGASENIYGGLNWYQRKQGKSPQLLIYGATNLADGMSSRFSGSGSGRQYSLKISRLHPDDVATYYCQNVLNTPYTFGGGTKLEIK | 7.98
